Please go through the items and note down their IC50.
# Assayed target: Histone deacetylase
# Assay details: Inhibition of HDAC in human HeLa nuclear extract using fluoroscence-labeled acetylated peptide as substrate by fluorometric assay
# Assay type: subcellular, Nucleus
# output: numeric value plus its unit

Consider the worked cases shown below.
O=C(CCCCCCN1C(=O)/C(=C2\Nc3ccccc3\C2=N/O)c2ccccc21)NO	22 nM
O=C(/C=C/c1ccc(CN2C(=O)/C(=C3\Nc4ccccc4\C3=N/O)c3cc(Cl)ccc32)cc1)NO	318 nM

Now for the molecule whose IC50 we want.
I'd like to know its IC50. The molecule in question is Cc1ccc2c(c1)/C(=C1/Nc3ccccc3/C1=N\O)C(=O)N2CCCCCCC(=O)NO
18 nM

* * *

# Test system: NCI-H23
# Assay details: Cytotoxicity against human NCI-H23 cells by colorimetric method
# Type: functional, cell-based
Structures can show the parent of a compound that is named as a salt.
Exercise: for every item that follows, state its recorded pIC50.
One number for each entry, as −log10 of the molar value.

O=C(/C=C/c1ccc(CN2C(=O)/C(=C3\Nc4ccccc4\C3=N/O)c3cccc(Cl)c32)cc1)NO	7.30
O=C(/C=C/c1ccc(CN2C(=O)/C(=C3\Nc4ccccc4\C3=N/O)c3ccccc32)cc1)NO	8.05
O=C(CCCCCCN1C(=O)/C(=C2\Nc3ccccc3\C2=N/O)c2cc(Cl)ccc21)NO	7.52
O=C(NO)c1ccc(CN2C(=O)/C(=C3\Nc4ccccc4\C3=N/O)c3ccccc32)cc1	7.15
COc1cccc2c1C(=O)c1c(O)c3c(c(O)c1C2=O)C[C@@](O)(C(=O)CO)C[C@@H]3O[C@H]1C[C@H](N)[C@H](O)[C@H](C)O1 [DOXORUBICIN HYDROCHLORIDE]	7.05
O=C(CCCCCCN1C(=O)/C(=C2\Nc3ccccc3\C2=N/O)c2cc(Br)ccc21)NO	8.05

Count: 2. Required value per item: pIC50.
1. O=C(CCCCCCN1C(=O)/C(=C2\Nc3ccccc3\C2=N/O)c2cccc(Cl)c21)NO
2. O=C(/C=C/c1ccc(CN2C(=O)/C(=C3\Nc4ccccc4\C3=N/O)c3cc(Br)ccc32)cc1)NO

7.30
8.05
